Data provenance: ChEMBL document CHEMBL1201862

Test system: PC-3
Test: NCI tumour cell line growth inhibition, 48 h
Active and inactive are the calls of the source. Cut-off read from the data, not from the text of the source: active = GI50 up to about 1.1 µM and inactive = higher. Residues, ends and D or L forms follow the SMILES beside them. *: point of attachment. OBn = c1ccc(CO*)cc1
measured.quantity: GI50

# compound, target.system, GI50
records = [
    ("O=C1/C(=N/c2ccc(Nc3ccccc3)cc2)Oc2ccccc21", "PC-3", "2.81 µM (inactive)"),
    ("Clc1ccc(/C=N/C23CC4CC(CC(C4)C2)C3)cc1Cl", "PC-3", "> 10 µM (inactive)"),
    ("CC1(C)OCC(C2OC3OC(C)(C)OC3C2c2ccccc2)O1 (centres undefined)", "PC-3", "24.3 µM (inactive)"),
]

The recorded GI50 for entry CO/C=C(/C(=O)OC)[C@@H]1C[C@@H]1c1ccc2ccccc2c1 equals 27.7 µM (inactive)

The recorded GI50 for entry Cn1c(-c2ccc[se]2)ccc1-c1ccc(C=O)[se]1 equals 56.9 µM (inactive)

The recorded GI50 for entry NC(CCC(=O)OCc1ccccc1)C(=O)NC(CCC(=O)OCc1ccccc1)C(=O)O (centres undefined) (H-Glu(OBn)-Glu(OBn)-OH; configuration not given here) equals > 100 µM (inactive)

The recorded GI50 for entry O=C(NCCCCCCNC(=O)c1cccc2ccccc12)Nc1cccc2ccccc12 equals > 100 µM (inactive)

The recorded GI50 for entry COC(=O)CCc1ccc2c(c1)[C@H](C(=O)OC)[C@@H](c1ccc(O)cc1)O2 equals > 100 µM (inactive)

The recorded GI50 for entry C[C@H](CCC(=O)O)[C@H]1CC[C@H]2[C@@H]3[C@H](O)C[C@@H]4C[C@H](O)CC[C@]4(C)[C@H]3C[C@H](O)[C@]12C equals > 100 µM (inactive)

----------
Tested on: CAKI-1
Assay: NCI tumour cell line growth inhibition, 48 h
Activity calls are given as the source filed them. Cut-off read from the data, not from the text of the source: active = GI50 up to about 1.1 µM and inactive = higher.
The categories you may choose from are true (1) (active), false (0) (inactive)

See these solved cases before continuing.
# compound, target.system, assigned.category
measured = [
    ("O=C1CSC(c2ccccc2O)N1c1ccc2c(c1)Oc1c(Cl)c3c(c(Cl)c1=N2)Oc1cc(N2C(=O)CSC2c2ccccc2O)ccc1N=3 (centres undefined)", "CAKI-1", "false (0)"),
    ("CC(C)(C)OC(=O)N1CCC23CCCC2C(=O)CC=C13 (centres undefined)", "CAKI-1", "false (0)"),
    ("Cc1ccc(/N=N/c2c(C)nn(-c3ccccc3)c2C)c(Br)c1", "CAKI-1", "false (0)"),
    ("CCCCC#CS(=O)(=O)C(F)(F)F", "CAKI-1", "true (1)"),
    ("CCCCCC(=O)OCC1(CO)C/C(=C\\CC(C(C)C)C(C)C)C(=O)O1 (centres undefined)", "CAKI-1", "false (0)"),
]

Req: What did this assay record as the result for OCC12C=CC(C1)c1ccccc12 (centres undefined) ?
Resp: false (0)

Req: What did this assay record as the result for COC1/C=C\C=C(/C)C(=O)NC2=CC(=O)C=C(C2=O)C(OC)C(C)CC(OC)C(OC)C(C)/C=C(/C)C1OC(N)=O (centres undefined) ?
Resp: false (0)

Req: What did this assay record as the result for COc1cccc(C2c3cc4c(cc3OC(N3CCCC3)C2C)OCO4)c1 (centres undefined) ?
Resp: false (0)

Req: What did this assay record as the result for CCCC[S+]([O-])CCC(N)C(=O)O (centres undefined) ?
Resp: false (0)

Req: What did this assay record as the result for O=C1C(Cl)=C(N2CCN(C3=C(Cl)C(=O)c4ccccc4C3=O)CC2)C(=O)c2ccccc21 ?
Resp: false (0)

Req: What did this assay record as the result for NC(=S)N/N=C(\CCC(=O)Nc1ccccc1[N+](=O)[O-])CC(=O)c1ccco1 ?
Resp: false (0)

Req: What did this assay record as the result for COCCOCCOC1=C(Cl)C(=O)c2c(O)ccc(O)c2C1=O ?
Resp: false (0)

Req: What did this assay record as the result for COc1cc(C2c3cc4c(cc3OC(Nc3ccccc3)C2C)OCO4)cc(OC)c1O (centres undefined) ?
Resp: false (0)

Req: What did this assay record as the result for Cc1cc(N(CCC#N)CCC#N)ccc1/C=C1N=C(/C=C/c2ccccc2)N(c2ccc(S(N)(=O)=O)cc2)C\1=O ?
Resp: false (0)

Req: What did this assay record as the result for CC1=CCC2(C#N)CCC1C2O (centres undefined) ?
Resp: false (0)

Req: What did this assay record as the result for CC1(c2ccc(F)cc2)C2C(=O)NC(=O)C1C(=O)NC2=O (centres undefined) ?
Resp: false (0)

----------
System: SF-268
Experiment: NCI tumour cell line growth inhibition, 48 h
Active and inactive are the calls of the source. No stated cut-off is given here; in the data, active = GI50 up to about 1.1 µM and inactive = higher.
measured.quantity: GI50

# compound, GI50
records = [
    ("CC(=O)N1C=Cc2c(c(C)c3c([nH]c4ccccc43)c2C)C1", "7.4 µM (inactive)"),
    ("C=CCCC(=O)CC(=O)OCc1ccccc1", "> 100 µM (inactive)"),
    ("COc1ccc(C(=O)Oc2c(C#N)sc3c2c(=O)n(-c2ccccc2)c(=S)n3-c2ccccc2)cc1", "34.2 µM (inactive)"),
    ("COc1ccc(/C(C=O)=C(\\Cl)c2ccc(OC)c(OC)c2)cc1", "46.1 µM (inactive)"),
    ("N#CC1=C(N)n2c(s/c(=C\\c3ccc(Cl)cc3)c2=O)=C(c2nc3ccccc3[nH]2)C1c1ccc(Cl)cc1 (stereo unspecified)", "2.64 µM (inactive)"),
]

The recorded GI50 for entry Brc1ccc(C2(N3CCCCC3)CCCCC2)s1 equals 48.9 µM (inactive)

The recorded GI50 for entry CC1(C)C(C(=O)OC(C#N)c2cccc(OCC(=O)OCc3ccccc3)c2)C1(C)C (stereo unspecified) equals > 100 µM (inactive)

The recorded GI50 for entry CCCCON1C[C@@H](O)C(O)[C@@H](O)C1 (stereo partly specified) equals > 100 µM (inactive)

----------
Listing: GI50 of selected molecules
Test system: HT-29
Experiment: NCI tumour cell line growth inhibition, 48 h
Calls of active or inactive are those of the source. Cut-off read from the data, not from the text of the source: active = GI50 up to about 1.1 µM and inactive = higher.

The following molecules have reported results that may help.
# molecule, GI50
data = [
    ("CCN(CC)Cc1sc2nc3ccccc3n2c1-c1ccc(OC)cc1", "18.5 µM (inactive)"),
    ("CN(NC(=O)c1ccc(Cl)cc1)C1=NCCCCN1", "> 100 µM (inactive)"),
    ("CCOC(=O)N1Cc2ccoc2C1", "> 100 µM (inactive)"),
    ("COc1ccccc1/N=N/c1c(-c2ccccc2)nn(C(=O)CC(=O)Nc2ccccc2Cl)c1-c1ccccc1", "99.3 µM (inactive)"),
    ("NCCSc1nc(N)c2ncn(C3OC(CO)C(O)C3O)c2n1 (stereo unspecified)", "> 100 µM (inactive)"),
]

The recorded GI50 for entry CC(C)=CCC(O)C1=CC(=O)c2c(O)ccc(O)c2C1=O (stereo unspecified) equals 1.97 µM (inactive)

----------
Tested on: EKVX
Assay: NCI tumour cell line growth inhibition, 48 h
Activity calls are given as the source filed them. Cut-off read from the data, not from the text of the source: active = GI50 up to about 1.1 µM and inactive = higher.
The categories you may choose from are active, inactive

See these solved cases before continuing.
# compound, assigned.category
rows = [
    ("Oc1cc(-c2ccccn2)nc2cccc(F)c12", "inactive"),
    ("CCc1nc2ccccc2c(=O)n1/N=C(\\N=N\\c1ccc(Cl)cc1)c1ccc(N(C)C)cc1", "inactive"),
    ("C/C(=N/NC(=S)N(C)C)c1ccccc1O", "inactive"),
    ("CC1=C(C(=O)OC(C)C)C(c2ccccc2[N+](=O)[O-])C(C(=O)OC(CO[N+](=O)[O-])CO[N+](=O)[O-])=C(C)N1 (stereo unspecified)", "inactive"),
    ("CC(C)(C)c1ccc(OCCOc2ccc(C(C)(C)C)cc2NC=O)c(NC=O)c1", "inactive"),
    ("O=C(Cc1ccccc1)NCCc1ccc(O)c(O)c1", "inactive"),
]

Req: What did this assay record as the result for CC(=O)c1ccc2c(c1)CC1(C2)Cc2cc3c(c(C(=O)O)c2C1)CCC3 (stereo unspecified) ?
Resp: inactive

Req: What did this assay record as the result for OCCN(CCO)c1ncnc2[nH]cnc12 ?
Resp: inactive

Req: What did this assay record as the result for Cc1cc(=O)n2nc(CN3CCCCC3)sc2n1 ?
Resp: inactive

Req: What did this assay record as the result for O=C(CN(C(=O)OC12CC3CC(CC(C3)C1)C2)C(=O)OC12CC3CC(CC(C3)C1)C2)Oc1ccc([N+](=O)[O-])cc1 ?
Resp: inactive

Req: What did this assay record as the result for COc1ccc(NC(=O)C(=O)C(CC2C(=O)NC(=S)NC2=O)C(=O)c2ccc3ccccc3c2)c([N+](=O)[O-])c1 (stereo unspecified) ?
Resp: inactive

Req: What did this assay record as the result for CCC1CN2CCC3(c4ccccc4)CC(C(=O)OC)=CC1C23 (stereo unspecified) ?
Resp: inactive
